biological target: TtCST WT (Ctc1-Stn1-Ten1, co-expressed with p50) (Tetrahymena, UniProt A0PGB2;Q6JXI5;D2CVN7;D2CVN8 1-622;1-373;1-164;1-422); assay: EMSA
Sequence (A0PGB2 whole entry, chain 1 of 4): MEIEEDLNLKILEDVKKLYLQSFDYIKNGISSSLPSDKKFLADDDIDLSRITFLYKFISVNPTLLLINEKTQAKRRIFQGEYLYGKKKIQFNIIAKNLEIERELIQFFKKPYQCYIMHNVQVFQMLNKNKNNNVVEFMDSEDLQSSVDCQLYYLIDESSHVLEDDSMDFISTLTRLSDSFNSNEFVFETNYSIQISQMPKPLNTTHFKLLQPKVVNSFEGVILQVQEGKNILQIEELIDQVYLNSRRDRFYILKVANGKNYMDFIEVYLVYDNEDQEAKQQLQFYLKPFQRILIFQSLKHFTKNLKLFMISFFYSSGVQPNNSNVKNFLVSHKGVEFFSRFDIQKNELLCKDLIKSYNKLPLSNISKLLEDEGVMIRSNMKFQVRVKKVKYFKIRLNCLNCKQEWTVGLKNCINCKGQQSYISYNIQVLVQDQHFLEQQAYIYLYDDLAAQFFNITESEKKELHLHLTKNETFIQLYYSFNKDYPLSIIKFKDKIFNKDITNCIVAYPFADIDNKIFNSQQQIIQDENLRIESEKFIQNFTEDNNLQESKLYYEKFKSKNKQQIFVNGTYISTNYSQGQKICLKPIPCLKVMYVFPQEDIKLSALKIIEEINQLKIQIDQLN
Sequence (Q6JXI5 whole entry, chain 2 of 4): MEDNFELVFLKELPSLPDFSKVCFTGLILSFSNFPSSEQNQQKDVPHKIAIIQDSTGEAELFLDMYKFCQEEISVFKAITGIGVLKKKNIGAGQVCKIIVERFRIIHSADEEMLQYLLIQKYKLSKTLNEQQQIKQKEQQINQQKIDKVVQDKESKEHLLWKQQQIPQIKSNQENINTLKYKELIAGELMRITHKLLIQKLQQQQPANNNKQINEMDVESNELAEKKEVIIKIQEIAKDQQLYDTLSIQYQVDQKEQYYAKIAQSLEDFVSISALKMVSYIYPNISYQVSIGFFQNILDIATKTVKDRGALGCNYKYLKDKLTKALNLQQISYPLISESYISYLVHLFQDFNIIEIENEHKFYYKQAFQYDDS
Sequence (D2CVN7 whole entry, chain 3 of 4): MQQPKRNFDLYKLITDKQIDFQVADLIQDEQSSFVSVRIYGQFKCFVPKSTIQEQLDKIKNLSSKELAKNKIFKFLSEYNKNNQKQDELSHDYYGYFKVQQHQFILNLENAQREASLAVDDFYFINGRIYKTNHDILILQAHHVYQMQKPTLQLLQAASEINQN
Sequence (D2CVN8 whole entry, chain 4 of 4): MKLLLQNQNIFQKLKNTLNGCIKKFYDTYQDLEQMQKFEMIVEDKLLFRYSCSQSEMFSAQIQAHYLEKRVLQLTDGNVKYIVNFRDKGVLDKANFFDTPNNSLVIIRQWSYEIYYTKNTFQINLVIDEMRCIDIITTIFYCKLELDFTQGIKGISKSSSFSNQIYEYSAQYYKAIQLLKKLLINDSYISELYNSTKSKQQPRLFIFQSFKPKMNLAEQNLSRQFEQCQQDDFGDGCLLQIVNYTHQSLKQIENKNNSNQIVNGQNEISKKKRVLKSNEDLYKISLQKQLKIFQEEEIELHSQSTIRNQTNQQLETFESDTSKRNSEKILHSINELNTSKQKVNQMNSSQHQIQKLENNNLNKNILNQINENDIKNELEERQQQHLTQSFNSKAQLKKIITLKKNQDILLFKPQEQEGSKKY
resultType: pKd
The read-out pKd is expressed as -log10 of concentration in moles per litre.

Problem: Reported pKd, binder GTTGGGGTTGGGGTTGGGGTTGGGGTTGGG (ssDNA) [d(GTTGGG)5] : ____
Solution: 6.74
